Biological target: UniProt:P08909
Sequence (P08909 whole entry): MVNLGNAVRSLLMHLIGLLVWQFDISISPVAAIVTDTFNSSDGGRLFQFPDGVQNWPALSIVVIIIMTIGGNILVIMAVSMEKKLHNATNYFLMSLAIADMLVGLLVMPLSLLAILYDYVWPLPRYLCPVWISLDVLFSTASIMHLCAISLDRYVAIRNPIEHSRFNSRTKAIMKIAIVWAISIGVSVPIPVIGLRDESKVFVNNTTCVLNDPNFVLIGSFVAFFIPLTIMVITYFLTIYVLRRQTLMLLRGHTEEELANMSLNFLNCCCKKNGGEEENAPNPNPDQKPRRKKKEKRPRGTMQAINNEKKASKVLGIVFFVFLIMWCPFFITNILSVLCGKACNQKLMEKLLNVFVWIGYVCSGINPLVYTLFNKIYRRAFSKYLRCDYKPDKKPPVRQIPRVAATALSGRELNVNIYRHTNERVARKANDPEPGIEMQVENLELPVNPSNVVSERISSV
Test: Agonist activity at 5HT2C receptor expressed in […] cells assessed as intracellular calcium mobilization relative to 5HT
pEC50: −log10 of the molar value.
Outcome label depends on pEC50 relative to 7: at/above gives Met, below gives Not met.

Example cases with answers are listed next.
Tell me whether pEC50 is at least 7 here: `COCCOCc1c2c(c(C[C@@H](C)N)c3c1OCC3)OCC2` Met

Tell me whether pEC50 is at least 7 here: `Cc1noc(Cc2c3c(c(C[C@@H](C)N)c4c2OCC4)OCC3)n1` Not met

Tell me whether pEC50 is at least 7 here: `C[C@@H](N)[C@H](O)c1c2c(c(Br)c3c1OCC3)OCC2` Met

Others:
Tell me whether pEC50 is at least 7 here: `COCc1c2c(c(C[C@@H](C)N)c3c1OCC3)OCC2` Met

* * *

Biological target: 5-hydroxytryptamine receptor 2B (Rattus norvegicus)
Sequence (P30994 whole entry): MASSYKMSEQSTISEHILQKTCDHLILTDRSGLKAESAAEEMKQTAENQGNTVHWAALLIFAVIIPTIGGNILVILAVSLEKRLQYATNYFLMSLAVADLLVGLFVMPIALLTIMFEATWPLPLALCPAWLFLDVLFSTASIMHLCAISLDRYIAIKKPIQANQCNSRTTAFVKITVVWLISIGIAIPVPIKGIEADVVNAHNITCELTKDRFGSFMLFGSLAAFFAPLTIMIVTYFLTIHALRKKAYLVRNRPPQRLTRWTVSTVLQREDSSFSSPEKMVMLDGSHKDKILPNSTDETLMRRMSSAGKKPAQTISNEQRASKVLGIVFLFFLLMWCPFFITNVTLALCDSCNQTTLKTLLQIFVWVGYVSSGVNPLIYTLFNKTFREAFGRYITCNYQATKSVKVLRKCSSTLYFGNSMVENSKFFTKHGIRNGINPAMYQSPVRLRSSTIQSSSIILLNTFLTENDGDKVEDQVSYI
Test: Agonist activity at 5HT2B receptor in rat stomach fundus assessed as […] relative to 5HT
List of EC50 values.
Quick reminder: number only, in nM, skip the unit.

Example entries begin here.
Briefly, EC50 measured for `Cc1noc(Cc2c3ccoc3c(C[C@@H](C)N)c3ccoc23)n1` : 23

Briefly, EC50 measured for `COCCOCc1c2c(c(C[C@@H](C)N)c3c1OCC3)OCC2` : 5.8

Briefly, EC50 measured for `Cc1noc(Cc2c3c(c(C[C@@H](C)N)c4c2OCC4)OCC3)n1` : 130

Please turn your attention to the following entry.
Briefly, EC50 measured for `C[C@@H](N)[C@H](O)c1c2c(c(Br)c3c1OCC3)OCC2` : 6.2

* * *

Biological target: 5-hydroxytryptamine receptor 2A (Rattus norvegicus)
Sequence (P14842 whole entry): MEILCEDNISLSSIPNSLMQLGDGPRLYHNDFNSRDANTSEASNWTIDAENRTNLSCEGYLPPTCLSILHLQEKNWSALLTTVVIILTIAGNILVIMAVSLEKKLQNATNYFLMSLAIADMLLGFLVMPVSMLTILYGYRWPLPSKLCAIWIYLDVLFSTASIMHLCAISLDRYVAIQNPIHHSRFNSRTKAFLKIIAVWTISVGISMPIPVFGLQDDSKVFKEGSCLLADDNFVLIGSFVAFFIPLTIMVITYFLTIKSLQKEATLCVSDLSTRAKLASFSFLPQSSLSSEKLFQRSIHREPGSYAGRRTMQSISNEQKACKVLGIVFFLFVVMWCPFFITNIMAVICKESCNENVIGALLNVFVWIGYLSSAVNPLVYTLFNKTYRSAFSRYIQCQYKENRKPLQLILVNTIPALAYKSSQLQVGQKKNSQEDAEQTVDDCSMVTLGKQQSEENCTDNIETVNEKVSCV
List of IC50 values.
Quick reminder: number only, in nM, skip the unit.

Example entries begin here.
# value of IC50, 5-hydroxytryptamine receptor 2A (Rattus norvegicus), item `C[C@@H](N)[C@H](O)c1c2c(c(Br)c3c1OCC3)OCC2` = 0.7

# value of IC50, 5-hydroxytryptamine receptor 2A (Rattus norvegicus), item `C[C@@H](N)Cc1c2c(c(CCC(=O)O)c3c1OCC3)OCC2` = 4700

# value of IC50, 5-hydroxytryptamine receptor 2A (Rattus norvegicus), item `Cc1noc(CCc2c3c(c(C[C@@H](C)N)c4c2OCC4)OCC3)n1` = 1

Others:
# value of IC50, 5-hydroxytryptamine receptor 2A (Rattus norvegicus), item `Cc1noc(Cc2c3c(c(C[C@@H](C)N)c4c2OCC4)OCC3)n1` = 1.6

# value of IC50, 5-hydroxytryptamine receptor 2A (Rattus norvegicus), item `C[C@@H](N)Cc1c2c(c(CC(=O)O)c3c1OCC3)OCC2` = 104

# value of IC50, 5-hydroxytryptamine receptor 2A (Rattus norvegicus), item `COc1cc(C[C@@H](C)N)c(OC)cc1I` = 0.46

# value of IC50, 5-hydroxytryptamine receptor 2A (Rattus norvegicus), item `COCCOCc1c2c(c(C[C@@H](C)N)c3c1OCC3)OCC2` = 0.88

# value of IC50, 5-hydroxytryptamine receptor 2A (Rattus norvegicus), item CC(N)Cc1c2c(c(Br)c3c1OCC3)OCC2 (stereo not given) = 0.3

# value of IC50, 5-hydroxytryptamine receptor 2A (Rattus norvegicus), item `COCc1c2c(c(C[C@@H](C)N)c3c1OCC3)OCC2` = 0.28

# value of IC50, 5-hydroxytryptamine receptor 2A (Rattus norvegicus), item `COC(=O)CCc1c2c(c(C[C@@H](C)N)c3c1OCC3)OCC2` = 0.86
